- tested.system: Retinoic acid receptor RXR-alpha (Homo sapiens)
- Sequence (P19793 whole entry): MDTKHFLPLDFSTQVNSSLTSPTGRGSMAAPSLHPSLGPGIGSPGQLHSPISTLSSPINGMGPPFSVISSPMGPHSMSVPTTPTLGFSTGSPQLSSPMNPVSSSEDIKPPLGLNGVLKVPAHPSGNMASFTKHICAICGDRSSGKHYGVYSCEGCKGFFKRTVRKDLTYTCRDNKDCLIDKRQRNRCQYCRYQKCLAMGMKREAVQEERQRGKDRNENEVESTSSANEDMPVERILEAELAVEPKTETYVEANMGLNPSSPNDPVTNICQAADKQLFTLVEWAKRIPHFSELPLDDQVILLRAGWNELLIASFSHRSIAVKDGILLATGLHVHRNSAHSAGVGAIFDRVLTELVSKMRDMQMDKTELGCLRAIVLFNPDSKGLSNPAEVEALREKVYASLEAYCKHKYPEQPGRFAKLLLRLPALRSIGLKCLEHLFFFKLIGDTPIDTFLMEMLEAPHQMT
- test.method.notes: Antagonist activity at human RXRalpha expressed in […] cells assessed as inhibition of LG-100268-induced transactivation
- Assay type: functional, cell-based, HEK293
assay.endpoint: IC50 (µM)

Worked examples, 2 molecules total:
> print(dat)
                                test.smiles  assay.result
1  CN1c2ccc(NS(=O)(=O)c3ccc(-c4ccccc4)cc3)cc2N=C(c2ccc(C(=O)O)cc2)c2cc3c(cc21)C(C)(C)CCC3(C)C           6.2
2  CN1c2ccc(NC(=O)Cc3ccc(F)cc3)cc2N=C(c2ccc(C(=O)O)cc2)c2cc3c(cc21)C(C)(C)CCC3(C)C           1.3

1: CN1c2ccc(NC(=O)C3CCCCC3)cc2N=C(c2ccc(C(=O)O)cc2)c2cc3c(cc21)C(C)(C)CCC3(C)C
2: CCC(=O)Nc1ccc2c(c1)N=C(c1ccc(C(=O)O)cc1)c1cc3c(cc1N2C)C(C)(C)CCC3(C)C
Consider 1 and 2 . Which of these has its IC50 at a higher number? Respond with the label that goes with your answer.
2

###

- tested.system: UniProtKB P19793
- test.method.notes: Antagonist activity at human RXRalpha expressed in […] cells assessed as inhibition of 9-cis-retinoic acid-induced transactivation
- Type: functional, cell-based, HEK293
assay.endpoint: IC50 (nM)

1: CCCS(=O)(=O)Nc1ccc2c(c1)N=C(c1ccc(C(=O)O)cc1)c1cc3c(cc1N2C)C(C)(C)CCC3(C)C
2: Cc1ccc(S(=O)(=O)Nc2ccc3c(c2)N=C(c2ccc(C(=O)O)cc2)c2cc4c(cc2N3C)C(C)(C)CCC4(C)C)cc1
Which value of IC50 is greater, the one for 1 or the one for 2 ? Indicate which entry you chose by stating its label.
2

P: CN1c2ccc(NC(=O)/C=C/c3ccccc3)cc2N=C(c2ccc(C(=O)O)cc2)c2cc3c(cc21)C(C)(C)CCC3(C)C
Q: CN1c2ccc(NC(=O)Cc3ccccc3)cc2N=C(c2ccc(C(=O)O)cc2)c2cc3c(cc21)C(C)(C)CCC3(C)C
Lowest IC50? choose P or Q // caller expects the label of the chosen entry
Q

I: CN1c2ccc(NS(=O)(=O)c3ccc(C(F)(F)F)cc3)cc2N=C(c2ccc(C(=O)O)cc2)c2cc3c(cc21)C(C)(C)CCC3(C)C
II: CCN1c2ccc(NC(=O)Cc3ccc(F)cc3)cc2N=C(c2ccc(C(=O)O)cc2)c2cc3c(cc21)C(C)(C)CCC3(C)C
Which value of IC50 is numerically greater: that of I or that of II ? Use the label to indicate which entry you chose.
I
(I: 1100 nM, II: 720 nM)
